Provenance of the data: patent US20260042834A1

Target: T1, biotinylated CRH (human and mouse, not fully specified; biotinylated, position not stated)
T1 construct: also called Biotin-CRH; biotin-labeled CRH
T1 peptide: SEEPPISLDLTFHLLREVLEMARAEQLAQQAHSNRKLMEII
Test: Octet BLI, biotinylated CRH on SA sensor
pKd: −log10 of the molar value.
Each record here notes measured pKd.
reported property: pKd

binder="PR302341 (antibody, human IgG1, kappa, V domains shown, Series 10; mouse variable domains with human IgG1 wildtype Fc) VH: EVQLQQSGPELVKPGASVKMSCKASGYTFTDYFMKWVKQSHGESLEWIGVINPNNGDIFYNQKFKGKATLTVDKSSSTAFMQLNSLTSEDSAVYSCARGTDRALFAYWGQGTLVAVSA VL: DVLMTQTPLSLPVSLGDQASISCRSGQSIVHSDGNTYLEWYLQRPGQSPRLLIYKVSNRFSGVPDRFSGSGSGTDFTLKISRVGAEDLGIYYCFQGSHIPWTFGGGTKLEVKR" assay_value="> 12.00"
binder="PR302309-11 (antibody, human IgG1, kappa, V domains shown, Humanized variant of PR302309) VH: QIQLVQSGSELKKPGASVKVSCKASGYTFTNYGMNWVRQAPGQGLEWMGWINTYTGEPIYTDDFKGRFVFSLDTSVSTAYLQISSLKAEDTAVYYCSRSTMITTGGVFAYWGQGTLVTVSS VL: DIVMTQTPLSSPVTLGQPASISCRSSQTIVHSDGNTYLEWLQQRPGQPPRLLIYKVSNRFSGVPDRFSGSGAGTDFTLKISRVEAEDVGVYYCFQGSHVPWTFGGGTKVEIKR" assay_value=10.26
binder="PR302334-10 (antibody, human IgG1, kappa, V domains shown, Humanized variant of PR302334) VH: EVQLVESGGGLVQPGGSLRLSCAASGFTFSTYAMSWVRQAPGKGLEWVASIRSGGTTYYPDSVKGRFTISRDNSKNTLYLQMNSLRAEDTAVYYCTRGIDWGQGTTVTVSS VL: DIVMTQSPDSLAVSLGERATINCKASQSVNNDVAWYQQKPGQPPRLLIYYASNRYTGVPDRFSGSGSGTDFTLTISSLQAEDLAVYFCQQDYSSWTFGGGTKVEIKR" assay_value="> 12.00"
